pKd: −log10 of the molar value.
pKd values recorded for JAK2 (Homo sapiens, UniProt O60674)

NC(=O)c1c(Nc2ccc(CN3CCOCC3)cc2)n[nH]c1NCc1ccc(O)cc1 [reference compound]
> 7.30

Count: 8. Required value per item: pKd.
1. NC(=O)c1c(Nc2ccc(N3CCC(N4CCCC4)CC3)nc2)n[nH]c1NCc1ccc(O)cc1 [reference compound]
2. Cc1cc(Nc2n[nH]c(NCc3cc(C)c(O)c(C)c3)c2C(N)=O)ccc1N1CCN(C)CC1
3. Cc1cc(Nc2n[nH]c(NCc3ccc(O)cc3)c2C(N)=O)cnc1N1CCN(C)CC1 [reference compound]
4. NC(=O)c1c(Nc2ccc(N3CCN(Cc4ccccc4)CC3)cc2)n[nH]c1NCc1ccc(O)cc1 [reference compound]
5. Cc1cc(Nc2n[nH]c(NCc3ccc(O)cc3)c2C(N)=O)ccc1N1CCCCC1 [reference compound]
6. Cc1cc(CNc2[nH]nc(Nc3ccc(CN4CCCC4)cc3)c2C(N)=O)cc(C)c1O
7. NC(=O)c1c(Nc2ccc(NC(=O)c3ccc(F)cc3)cc2)n[nH]c1NCc1ccc(O)cc1 [reference compound]
8. Cc1cc(CNc2[nH]nc(Nc3ccc(N4CCN(C)CC4)cc3)c2C(N)=O)cc(C)c1O

Outgoing:
["> 7.30", "6.00 to 7.00", "> 7.30", "> 7.30", "> 7.30", "6.00 to 7.00", "> 7.30", "< 6.00"]

Count: 3. Required value per item: pKd.
1. C[C@@H]1CN(c2ccc(Nc3n[nH]c(NCc4ccc(O)cc4)c3C(N)=O)cc2)C[C@H](C)O1 [reference compound]
2. Cc1cc(CNc2[nH]nc(Nc3ccc(-c4cnco4)cc3)c2C(N)=O)cc(C)c1O
3. CC(C)(C)c1ccc(Nc2n[nH]c(NCc3ccc(O)cc3)c2C(N)=O)cc1 [reference compound]

Outgoing:
["> 7.30", "< 6.00", "> 7.30"]

Incoming: Give the measured pKd for Cc1cc(Nc2n[nH]c(NCc3ccc(O)cc3)c2C(N)=O)cnc1N1CCN(C(C)C)CC1 [reference compound]
Outgoing: > 7.30
